From: paper PMC11877520

# System: Schistosoma mansoni
# experiment.notes: In vitro antischistosomal assay on adult schistosomes (parasite viability by microscope)
# Format: cell-based, Schistosoma mansoni (BH strain)
# setup.conditions: Schistosoma mansoni; adult male worms, in vitro, 72 h, 0.78–50 μM tested; read-out: S. mansoni male EC50
pEC50: −log10 of the molar value.
observed.property: pEC50

Sample records with pEC50:
| compound | reported.value |
| --- | --- |
| CCCCCCCC/C=C\[C@@H](O)[C@H](O)CCCCCC(=O)O (stereo in doubt) | 5.08 |
| CC1(C)CCC(=O)[C@@]23C(=O)OC4OCC(=CC[C@@H]12)[C@H]43 (stereo partly drawn) | < 4.30 |
| O=C(C1CCCCC1)N1CC(=O)N2CCc3ccccc3C2C1 (stereo not drawn) [PZQ, Praziquantel, reference compound] | 6.05 |
| CCCCC[C@H](O)[C@@H](O)/C=C/C=C/C(=O)CCCCCC(=O)O | < 4.30 |
| CCCCCC(=O)/C=C/C=C/[C@H](O)[C@@H](O)CCCCCC(=O)O | < 4.30 |

Field: next compound
Query block: # get_value(readout='pEC50', item= O=C(O)/C=C/CCCCCCC(=O)O )
Result block: < 4.30
